- System: TK− VZV Strain (07-1)
- test details: microbe, parasite or virus in culture
- Type: cell-based, varicella-zoster virus
- assay conditions: Human alphaherpesvirus 3, HEL, read-out: Antiviral Activity EC50 TK− VZV Strain (07-1)
pEC50: −log10 of the molar value.
Entries annotated with measured pEC50

compound	tgt	outcome measure	value reported
CCOP(=O)(OCC)[C@H]1C[C@H](c2nc3ccc(Br)cc3c(=O)n2C)ON1C (relative stereo) [trans-11j]	TK− VZV Strain (07-1)	pEC50	< 5.40
CCOP(=O)(OCC)[C@H]1C[C@H](c2nc3ccc(Br)cc3c(=O)[nH]2)ON1C (relative stereo) [trans-11a]	TK− VZV Strain (07-1)	pEC50	4.17

Please turn your attention to the following entry.
CCOP(=O)(OCC)[C@H]1C[C@@H](c2nc3ccc(Br)cc3c(=O)[nH]2)ON1C (relative stereo) [cis-11a] yielded pEC50 of < 4.00

Measured values drawn from paper PMC6222691 for this set.
